# ASSAYED_SYSTEM: FGFR3 (UniProt P22607)
# Sequence (P22607 whole entry, looked up): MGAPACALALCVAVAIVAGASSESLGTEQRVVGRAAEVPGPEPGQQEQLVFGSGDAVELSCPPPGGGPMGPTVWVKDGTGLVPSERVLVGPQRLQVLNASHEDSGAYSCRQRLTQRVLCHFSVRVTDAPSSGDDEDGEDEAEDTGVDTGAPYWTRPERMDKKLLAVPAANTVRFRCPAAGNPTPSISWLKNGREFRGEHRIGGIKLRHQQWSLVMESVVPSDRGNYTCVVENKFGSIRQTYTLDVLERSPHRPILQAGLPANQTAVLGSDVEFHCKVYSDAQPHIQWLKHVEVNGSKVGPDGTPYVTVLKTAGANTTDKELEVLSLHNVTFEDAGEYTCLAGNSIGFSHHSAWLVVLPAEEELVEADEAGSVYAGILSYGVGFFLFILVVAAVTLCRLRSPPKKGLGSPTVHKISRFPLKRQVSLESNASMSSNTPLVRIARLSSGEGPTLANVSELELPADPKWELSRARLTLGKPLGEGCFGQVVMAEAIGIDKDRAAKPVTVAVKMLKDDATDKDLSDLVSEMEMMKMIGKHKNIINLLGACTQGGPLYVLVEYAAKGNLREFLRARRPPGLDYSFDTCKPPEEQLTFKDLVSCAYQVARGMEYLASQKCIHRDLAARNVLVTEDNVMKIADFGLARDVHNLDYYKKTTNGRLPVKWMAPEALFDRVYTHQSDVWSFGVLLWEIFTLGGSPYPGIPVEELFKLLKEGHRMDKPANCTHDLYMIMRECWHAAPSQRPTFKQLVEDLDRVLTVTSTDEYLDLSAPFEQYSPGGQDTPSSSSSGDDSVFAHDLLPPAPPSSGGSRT
# PROTOCOL_DETAILS: phosphorylation enrichment, bacterial display (enrichment ratio); higher = better substrate or ligand; peptides without Tyr show the background;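 further: 11-residue human phosphosite peptides and single-mutation variants displayed on the E. coli surface, counted by deep sequencing, each peptide's frequency after selection divided by its frequency in the unselected input library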;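 further: frequency after pTyr selection over input frequency; kinase dosed for 20-30% of maximal phosphorylation in three min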
REPORTED_PROPERTY: phosphorylation enrichment
Respond using a number only.

Worked cases, phosphorylation enrichment given:
> print(dat)
                      input.sequence          assayed.system  reported.value
1       LPKEQYLFTKE [AFG3L2_Y614_YF]  FGFR3 (UniProt P22607)            1.51
2  AIIEEYLHLSD [EIF4G1_Y1253_N1257S]  FGFR3 (UniProt P22607)           0.838
3    GFPVRYTDVSN [DNMT3B_Y815_H814R]  FGFR3 (UniProt P22607)           0.531
4          RARPPYTVAAD [ANKZF1_Y572]  FGFR3 (UniProt P22607)           0.458
5  PIFEGYGLPHA [ACTA1_Y171_A172G_YF]  FGFR3 (UniProt P22607)           0.451
6     RREQDYTNLPS [CSF1R_Y923_R921Q]  FGFR3 (UniProt P22607)           0.951
7     KLIETCFSKNF [PLP1_Y50_Y50C_YF]  FGFR3 (UniProt P22607)           0.725
8    ATDLAYFLVCK [ASL_Y375_R379C_YF]  FGFR3 (UniProt P22607)            1.26

Query (sequence): ITQRAYRRHLL [SCN1A_Y1926_I1922T] ; field requested: phosphorylation enrichment 0.48

Query (sequence): ARAHKYHGGGG [HBB_Y146_L142R] ; field requested: phosphorylation enrichment 0.371

Query (sequence): HKANEYYPVVI [ADAMTS18_Y764_L769I] ; field requested: phosphorylation enrichment 13.1

Query (sequence): MFFSTYDRDND [FGB_Y408] ; field requested: phosphorylation enrichment 0.601

Query (sequence): PGPPGYCDSSQ [COL12A1_Y3043] ; field requested: phosphorylation enrichment 0.941

Query (sequence): FENGEYIVRQG [PRKG1_Y247_I249V_YF] ; field requested: phosphorylation enrichment 0.922

Query (sequence): QYQEKYKQVEQ [HCN4_Y531] ; field requested: phosphorylation enrichment 1.3

Query (sequence): QSPQLYKQLCI [DARS1_Y253_M256L] ; field requested: phosphorylation enrichment 1.05
